Target: T1, HLA-A*0201 molecule on human T2 cells (human)
T1 construct: read out with anti-HLA-A2 antibody BB7.2-PE; also called HLA-A2
Assay: T2 cells expressing HLA-A*0201, anti-HLA-A2-PE, FACS
Give mean relative fluorescence intensity at 50 µM peptide for every item shown.

Query: Data request, read-out mean relative fluorescence intensity at 50 µM peptide, for GLLGEFLQI (also called B1RC5-B3) [BIRC5-B3]
Response: 29.8 % of HIV peptide

Query: Data request, read-out mean relative fluorescence intensity at 50 µM peptide, for LMDLSTTPL (Fragment of human FOXM1) [FOXM1-H2]
Response: 62.5 % of HIV peptide

Query: Data request, read-out mean relative fluorescence intensity at 50 µM peptide, for FMVEDETVL (Fragment of human EZH2) [EZH2-H]
Response: 66 % of HIV peptide

Query: Data request, read-out mean relative fluorescence intensity at 50 µM peptide, for FLDSLGFSL [TYMS-B2]
Response: 62 % of HIV peptide
